Listing of entries alongside the reported log10 IC50.
Molecular target: UniProt P48736
Sequence (P48736 whole entry, species assumed): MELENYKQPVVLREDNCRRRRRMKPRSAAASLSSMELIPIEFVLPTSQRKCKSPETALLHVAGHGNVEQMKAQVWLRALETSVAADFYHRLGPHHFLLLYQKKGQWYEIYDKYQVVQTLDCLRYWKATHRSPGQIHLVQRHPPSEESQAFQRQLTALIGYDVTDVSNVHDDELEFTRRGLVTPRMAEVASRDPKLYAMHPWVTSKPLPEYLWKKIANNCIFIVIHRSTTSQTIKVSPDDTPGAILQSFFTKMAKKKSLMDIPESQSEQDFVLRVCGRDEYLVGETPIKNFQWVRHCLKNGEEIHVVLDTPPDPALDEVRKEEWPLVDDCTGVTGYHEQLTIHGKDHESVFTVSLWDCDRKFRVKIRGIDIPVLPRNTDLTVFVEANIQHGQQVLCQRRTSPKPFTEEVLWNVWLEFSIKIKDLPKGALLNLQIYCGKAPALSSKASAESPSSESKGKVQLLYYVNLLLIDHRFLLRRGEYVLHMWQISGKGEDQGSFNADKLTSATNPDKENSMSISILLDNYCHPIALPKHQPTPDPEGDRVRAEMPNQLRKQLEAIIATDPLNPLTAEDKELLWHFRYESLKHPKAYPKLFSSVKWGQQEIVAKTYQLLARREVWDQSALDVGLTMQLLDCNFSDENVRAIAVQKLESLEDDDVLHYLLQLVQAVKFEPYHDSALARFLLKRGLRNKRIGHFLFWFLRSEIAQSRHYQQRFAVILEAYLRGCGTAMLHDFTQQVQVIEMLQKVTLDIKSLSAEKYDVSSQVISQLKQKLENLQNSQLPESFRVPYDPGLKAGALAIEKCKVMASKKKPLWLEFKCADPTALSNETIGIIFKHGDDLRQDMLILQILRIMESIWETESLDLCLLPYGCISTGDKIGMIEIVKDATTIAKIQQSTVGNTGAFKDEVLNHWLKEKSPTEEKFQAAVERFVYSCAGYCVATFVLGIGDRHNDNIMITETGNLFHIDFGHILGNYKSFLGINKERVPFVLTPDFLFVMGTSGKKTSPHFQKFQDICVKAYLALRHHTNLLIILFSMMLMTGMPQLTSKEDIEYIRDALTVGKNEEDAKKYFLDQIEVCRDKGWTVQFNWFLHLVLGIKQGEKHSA
Test: PI3K-gamma fluorescence polarization assay
Type: biochemical
Settings: PI3Kγ Avg. IC50
On a log10 scale: recorded IC50, unit nM.

Below, 5 compounds whose answers are already recorded.
COc1ccc2[nH]c(-c3c(C)nn(C)c3C)c(/C=C3\Oc4ccc(NC(=O)Nc5ccc(C(=O)N6CCC(N(C)C)CC6)cc5)cc4C3=O)c2c1 0.48
COc1ccc2c(c1)c(C=C1Oc3cc(O)cc(O)c3C1=O)c(C)n2CCCN1CCN(C)CC1 2.60
COc1ccc2[nH]c(C(=O)O)c(/C=C3\Oc4cc(O)cc(O)c4C3=O)c2c1 0.93
COc1ccc2c(c1)c(/C=C1\Oc3ccc(O)cc3C1=O)c(C)n2CCN1CCN(C)CC1 3.78
COc1cc(F)c2[nH]c(-c3c(C)nn(C)c3C)c(/C=C3\Oc4ccc(NC(=O)Nc5ccc(C(=O)N6CCN(CCO)CC6)cc5)cc4C3=O)c2c1 0.35

Write down the reported log10 IC50 of `COc1ccc2c(c1)c(/C=C1\Oc3ccc(NC(=O)NCCN)cc3C1=O)c(C1CCCC1)n2CCN1CCN(C)CC1` , test system: UniProt P48736. 2.16

Write down the reported log10 IC50 of `CNC(=O)Nc1ccc2c(c1)C(=O)/C(=C/c1c(-c3ccc(CN(C)C)cc3)n(CCN3CCN(C)CC3)c3ccc(OC)cc13)O2` , test system: UniProt P48736. 2.20

Values from patent US20090311217A1
